system-name: EGFR WT in Ba/F3 cells (Homo sapiens (Human))
Sequence (P00533 25-1210): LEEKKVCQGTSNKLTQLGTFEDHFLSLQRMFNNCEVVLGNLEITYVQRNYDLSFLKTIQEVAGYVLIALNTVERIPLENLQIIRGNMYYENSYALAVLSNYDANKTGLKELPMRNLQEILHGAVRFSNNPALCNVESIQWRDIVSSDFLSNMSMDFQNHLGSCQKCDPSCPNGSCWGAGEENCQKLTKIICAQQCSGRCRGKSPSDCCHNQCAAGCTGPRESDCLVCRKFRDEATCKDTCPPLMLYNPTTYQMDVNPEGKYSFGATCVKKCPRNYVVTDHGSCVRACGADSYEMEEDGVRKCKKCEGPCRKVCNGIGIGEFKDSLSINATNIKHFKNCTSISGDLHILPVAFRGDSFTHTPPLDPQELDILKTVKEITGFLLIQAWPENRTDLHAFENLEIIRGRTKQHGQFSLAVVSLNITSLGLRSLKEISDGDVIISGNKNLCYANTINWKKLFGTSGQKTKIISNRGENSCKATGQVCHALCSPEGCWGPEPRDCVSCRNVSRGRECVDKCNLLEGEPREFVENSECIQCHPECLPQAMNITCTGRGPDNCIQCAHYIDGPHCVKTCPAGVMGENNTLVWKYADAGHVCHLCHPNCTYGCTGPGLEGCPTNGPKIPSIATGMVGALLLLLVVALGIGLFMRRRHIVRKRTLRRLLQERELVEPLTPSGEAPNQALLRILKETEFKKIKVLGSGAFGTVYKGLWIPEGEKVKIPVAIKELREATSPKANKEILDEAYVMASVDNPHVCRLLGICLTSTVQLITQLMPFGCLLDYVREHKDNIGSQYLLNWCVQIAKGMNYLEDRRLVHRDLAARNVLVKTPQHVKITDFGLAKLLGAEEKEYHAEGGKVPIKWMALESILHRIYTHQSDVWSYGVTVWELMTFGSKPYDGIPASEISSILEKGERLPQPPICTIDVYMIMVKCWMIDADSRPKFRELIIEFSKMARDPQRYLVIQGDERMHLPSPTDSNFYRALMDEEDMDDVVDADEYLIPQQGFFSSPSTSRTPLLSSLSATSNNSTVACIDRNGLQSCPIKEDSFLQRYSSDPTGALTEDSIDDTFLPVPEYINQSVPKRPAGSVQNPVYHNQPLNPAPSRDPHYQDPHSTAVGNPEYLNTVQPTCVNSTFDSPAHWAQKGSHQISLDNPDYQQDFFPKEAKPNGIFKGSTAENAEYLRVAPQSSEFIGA
method: Ba/F3 pEGFR assay (AlphaLISA p-EGFR Tyr1068)
measurement-setup: 2 hrs treatment, media supplemented with EGF
Readings of IC50 for the listed molecules
Kindly provide the numeric value in nM only, without the unit symbol.

CN1CCN(Cc2ccc3[nH]/c(=N\C(=O)c4ccnc(Oc5cc(F)cc(O)c5C=O)c4)n(CC(C)(C)O)c3c2)CC1 ... 2950
CN1CCN(c2ccc3[nH]/c(=N\C(=O)c4ccnc(Oc5cccc(O)c5C=O)c4)n(CC(C)(C)O)c3c2)CC1 ... 763

Now turn to the next molecule.
// IC50 lookup, molecule = CN1CCN(Cc2ccc3[nH]/c(=N\C(=O)c4cc(C#N)cc(Oc5cccc(O)c5C=O)c4)n(CC(C)(C)O)c3c2)CC1 , result: 1900

meta.source: patent US20240409609A1
